assay: Biodistribution in BDL rats with and without excess cold compound; assay type: in vivo; conditions: male, Sprague Dawley, rat, spleen, iv, total radioactivity, BDL rats, 15 days post-op, 1 hour post-injection, 100-fold excess cold Compound 8; read-out: Activity in Spleen, Mean
Numbered stars: 1 amine (or outer) side, 2 acyl side, 3 side chain; on linkers, the order of the positions; unused ones are H or OH. Bridge positions count the residues as written; N and C are the ends. Side chains are listed from the residue outwards. Peptide text beside a SMILES is read from it. * marks the point of attachment. X1 = C/C(=N\O)C(C)(C)NCCC(CCNC(C)(C)/C(C)=N/O)CCN*; Glutaryl = O=C(CCCC(=O)[*:2])[*:1]; X2 = NC(=O)COCC(=O)NCCOCCOCCOCCN*
attributeMeasured: tissue uptake dose at 1 h (%ID)
Express it in %ID; write the number only.

Would you kindly share the measured tissue uptake dose at 1 h for C/C(=N\O)C(C)(C)NCCC(CCNC(=O)CCCC(=O)NCCCC[C@@H]1NC(=O)CSC[C@@H](C(=O)NCCOCCOCCOCCNC(=O)COCC(N)=O)NC(=O)[C@H](Cc2ccccc2)NC(=O)[C@@H]2CSSC[C@H](NC1=O)C(=O)N[C@@H](CCCNC(=N)N)C(=O)NCC(=O)N[C@@H](CC(=O)O)C(=O)N2)CCNC(C)(C)/C(C)=N/O (stereo partly shown) [Compound 8] ({CH2CO}-K([Glutaryl-X1])CRGDCFC-X2; disulfide 2-6; thioether N-8) ?
0.57

====

assay: Biodistribution in BDL rats with and without excess cold compound; type: in vivo; conditions: male, Sprague Dawley, rat, small and large intestine, iv, total radioactivity, BDL rats, 15 days post-op, 1 hour post-injection, no excess; read-out: Activity in Small & Large Intestine, Mean
Numbered stars: 1 amine (or outer) side, 2 acyl side, 3 side chain; on linkers, the order of the positions; unused ones are H or OH. Bridge positions count the residues as written; N and C are the ends. Side chains are listed from the residue outwards. Peptide text beside a SMILES is read from it. * marks the point of attachment. X1 = C/C(=N\O)C(C)(C)NCCC(CCNC(C)(C)/C(C)=N/O)CCN*; Glutaryl = O=C(CCCC(=O)[*:2])[*:1]; X2 = NC(=O)COCC(=O)NCCOCCOCCOCCN*
attributeMeasured: tissue uptake dose at 1 h (%ID)
Answer format: numeric, %ID implied, no suffix.

Name the recorded tissue uptake dose at 1 h for C/C(=N\O)C(C)(C)NCCC(CCNC(=O)CCCC(=O)NCCCC[C@@H]1NC(=O)CSC[C@@H](C(=O)NCCOCCOCCOCCNC(=O)COCC(N)=O)NC(=O)[C@H](Cc2ccccc2)NC(=O)[C@@H]2CSSC[C@H](NC1=O)C(=O)N[C@@H](CCCNC(=N)N)C(=O)NCC(=O)N[C@@H](CC(=O)O)C(=O)N2)CCNC(C)(C)/C(C)=N/O (stereo partly shown) [Compound 8] ({CH2CO}-K([Glutaryl-X1])CRGDCFC-X2; disulfide 2-6; thioether N-8) .
8.32

====

test: Biodistribution in sham-operated rats with and without excess cold compound; format: in vivo; conditions: male, Sprague Dawley, rat, carcass, iv, 3 MBq, total radioactivity, 15 days post-op, 1 hour post-injection, +10K-fold excess cold Compound 8, read-out: Activity in Carcass, Mean
Numbered stars: 1 amine (or outer) side, 2 acyl side, 3 side chain; on linkers, the order of the positions; unused ones are H or OH. Bridge positions count the residues as written; N and C are the ends. Side chains are listed from the residue outwards. Peptide text beside a SMILES is read from it. * marks the point of attachment. X1 = C/C(=N\O)C(C)(C)NCCC(CCNC(C)(C)/C(C)=N/O)CCN*; Glutaryl = O=C(CCCC(=O)[*:2])[*:1]; X2 = NC(=O)COCC(=O)NCCOCCOCCOCCN*
attributeMeasured: tissue uptake dose at 1 h (%ID)
Entry rule: numbers only, all in %ID.

Record request: tissue uptake dose at 1 h value, item C/C(=N\O)C(C)(C)NCCC(CCNC(=O)CCCC(=O)NCCCC[C@@H]1NC(=O)CSC[C@@H](C(=O)NCCOCCOCCOCCNC(=O)COCC(N)=O)NC(=O)[C@H](Cc2ccccc2)NC(=O)[C@@H]2CSSC[C@H](NC1=O)C(=O)N[C@@H](CCCNC(=N)N)C(=O)NCC(=O)N[C@@H](CC(=O)O)C(=O)N2)CCNC(C)(C)/C(C)=N/O (stereo partly shown) [Compound 8] ({CH2CO}-K([Glutaryl-X1])CRGDCFC-X2; disulfide 2-6; thioether N-8)
11.6

====

assay: Biodistribution in BDL rats with and without excess cold compound; type: in vivo; settings: male, Sprague Dawley, rat, bone, iv, total radioactivity, BDL rats, 15 days post-op, 1 hour post-injection, no excess; read-out: Activity in Bone, Mean
Numbered stars: 1 amine (or outer) side, 2 acyl side, 3 side chain; on linkers, the order of the positions; unused ones are H or OH. Bridge positions count the residues as written; N and C are the ends. Side chains are listed from the residue outwards. Peptide text beside a SMILES is read from it. * marks the point of attachment. X1 = C/C(=N\O)C(C)(C)NCCC(CCNC(C)(C)/C(C)=N/O)CCN*; Glutaryl = O=C(CCCC(=O)[*:2])[*:1]; X2 = NC(=O)COCC(=O)NCCOCCOCCOCCN*
attributeMeasured: tissue uptake dose at 1 h

Suppose we examine the compound C/C(=N\O)C(C)(C)NCCC(CCNC(=O)CCCC(=O)NCCCC[C@@H]1NC(=O)CSC[C@@H](C(=O)NCCOCCOCCOCCNC(=O)COCC(N)=O)NC(=O)[C@H](Cc2ccccc2)NC(=O)[C@@H]2CSSC[C@H](NC1=O)C(=O)N[C@@H](CCCNC(=N)N)C(=O)NCC(=O)N[C@@H](CC(=O)O)C(=O)N2)CCNC(C)(C)/C(C)=N/O (stereo partly shown) [Compound 8] ({CH2CO}-K([Glutaryl-X1])CRGDCFC-X2; disulfide 2-6; thioether N-8) ; what tissue uptake dose at 1 h value has been reported?
3.02 %ID

====

experiment: Biodistribution in sham-operated rats with and without excess cold compound; type: in vivo; settings: male, Sprague Dawley, rat, heart, iv, 3 MBq, total radioactivity, 15 days post-op, 1 hour post-injection, +10K-fold excess cold Compound 8, read-out: Activity in Heart, Mean
Numbered stars: 1 amine (or outer) side, 2 acyl side, 3 side chain; on linkers, the order of the positions; unused ones are H or OH. Bridge positions count the residues as written; N and C are the ends. Side chains are listed from the residue outwards. Peptide text beside a SMILES is read from it. * marks the point of attachment. X1 = C/C(=N\O)C(C)(C)NCCC(CCNC(C)(C)/C(C)=N/O)CCN*; Glutaryl = O=C(CCCC(=O)[*:2])[*:1]; X2 = NC(=O)COCC(=O)NCCOCCOCCOCCN*
attributeMeasured: tissue uptake dose at 1 h
Be sure to follow the number with its unit.

Quick one: tissue uptake dose at 1 h for C/C(=N\O)C(C)(C)NCCC(CCNC(=O)CCCC(=O)NCCCC[C@@H]1NC(=O)CSC[C@@H](C(=O)NCCOCCOCCOCCNC(=O)COCC(N)=O)NC(=O)[C@H](Cc2ccccc2)NC(=O)[C@@H]2CSSC[C@H](NC1=O)C(=O)N[C@@H](CCCNC(=N)N)C(=O)NCC(=O)N[C@@H](CC(=O)O)C(=O)N2)CCNC(C)(C)/C(C)=N/O (stereo partly shown) [Compound 8] ({CH2CO}-K([Glutaryl-X1])CRGDCFC-X2; disulfide 2-6; thioether N-8) ?
0.1 %ID

====

Assay: Biodistribution in sham-operated rats with and without excess cold compound
Format: in vivo
Settings: male, Sprague Dawley, rat, liver, iv, 3 MBq, total radioactivity, 15 days post-op, 1 hour post-injection, +100-fold excess cold Compound 8, read-out: Activity in Liver, Mean
Experimental: On the appropriate day post surgery BDL and sham animals were removed and put under isoflurane anaesthesia, then each animal was injected with 0.3 ml intravenously (i.v.) via tail vein (˜3MBq). At the appropriate time point post-injection of the test item, each animal was re-anaesthetised with isoflurane, sacrificed by cervical dislocation weighed and the weight recorded via a barcode scanning system. […]
Numbered stars: 1 amine (or outer) side, 2 acyl side, 3 side chain; on linkers, the order of the positions; unused ones are H or OH. Bridge positions count the residues as written; N and C are the ends. Side chains are listed from the residue outwards. Peptide text beside a SMILES is read from it. * marks the point of attachment. X1 = C/C(=N\O)C(C)(C)NCCC(CCNC(C)(C)/C(C)=N/O)CCN*; Glutaryl = O=C(CCCC(=O)[*:2])[*:1]; X2 = NC(=O)COCC(=O)NCCOCCOCCOCCN*
attributeMeasured: tissue uptake dose at 1 h
Note to self: number, then unit, no commentary.

I'd like to know its tissue uptake dose at 1 h. The molecule in question is C/C(=N\O)C(C)(C)NCCC(CCNC(=O)CCCC(=O)NCCCC[C@@H]1NC(=O)CSC[C@@H](C(=O)NCCOCCOCCOCCNC(=O)COCC(N)=O)NC(=O)[C@H](Cc2ccccc2)NC(=O)[C@@H]2CSSC[C@H](NC1=O)C(=O)N[C@@H](CCCNC(=N)N)C(=O)NCC(=O)N[C@@H](CC(=O)O)C(=O)N2)CCNC(C)(C)/C(C)=N/O (stereo partly shown) [Compound 8] ({CH2CO}-K([Glutaryl-X1])CRGDCFC-X2; disulfide 2-6; thioether N-8)
3.52 %ID
